# Target Of Assay: Relipidated TF (Tissue Factor) (UniProt P13726 33-295, limits assumed)
# Procedure Summary: cell-based or functional assay
Quantity Kind: ETP [nM · min], Ab 10 nM (nM·min)

[[record]]
binder = "5G9 (humanized TF8-5G9, CNTO 860) (antibody, V domains shown) VH: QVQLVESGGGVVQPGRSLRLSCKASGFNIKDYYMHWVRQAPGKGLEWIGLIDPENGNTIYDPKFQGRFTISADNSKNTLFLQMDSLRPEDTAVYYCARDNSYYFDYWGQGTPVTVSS VL: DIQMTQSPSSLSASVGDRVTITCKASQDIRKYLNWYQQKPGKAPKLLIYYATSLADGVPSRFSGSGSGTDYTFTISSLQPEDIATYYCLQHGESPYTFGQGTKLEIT"
quantity_kind = "ETP [nM · min], Ab 10 nM"
numeric_value = 1180

[[record]]
binder = "TF-011 (antibody, V domains shown) VH: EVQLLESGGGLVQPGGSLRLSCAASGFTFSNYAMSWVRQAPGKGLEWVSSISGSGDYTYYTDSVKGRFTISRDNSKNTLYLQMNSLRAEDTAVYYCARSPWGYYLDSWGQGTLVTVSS VL: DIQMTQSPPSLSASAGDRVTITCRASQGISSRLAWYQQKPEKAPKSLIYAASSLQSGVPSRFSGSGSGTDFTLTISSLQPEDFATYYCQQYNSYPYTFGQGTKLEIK"
quantity_kind = "ETP [nM · min], Ab 10 nM"
numeric_value = 1710

[[record]]
binder = "39A (antibody, human IgG1, V domains shown) VH: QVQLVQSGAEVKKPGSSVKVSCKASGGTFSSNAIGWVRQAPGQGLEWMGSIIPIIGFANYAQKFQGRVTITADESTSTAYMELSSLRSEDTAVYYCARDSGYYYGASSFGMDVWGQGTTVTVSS VL: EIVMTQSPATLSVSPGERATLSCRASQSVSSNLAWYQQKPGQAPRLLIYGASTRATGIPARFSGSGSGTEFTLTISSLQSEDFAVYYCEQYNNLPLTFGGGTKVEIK"
quantity_kind = "ETP [nM · min], Ab 10 nM"
numeric_value = 1690

[[record]]
binder = "25A (antibody, human IgG1, V domains shown) VH: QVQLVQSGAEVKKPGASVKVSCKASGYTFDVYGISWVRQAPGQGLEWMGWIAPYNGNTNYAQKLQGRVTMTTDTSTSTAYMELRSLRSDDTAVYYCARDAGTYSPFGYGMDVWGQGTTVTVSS VL: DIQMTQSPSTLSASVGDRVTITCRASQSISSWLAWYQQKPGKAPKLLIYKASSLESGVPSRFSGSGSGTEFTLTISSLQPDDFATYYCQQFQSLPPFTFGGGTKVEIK"
quantity_kind = "ETP [nM · min], Ab 10 nM"
numeric_value = 2110

